Just for reference, ChEMBL document CHEMBL1201862 is where these values come from.

- Test system: MDA-MB-435
- protocol-summary: NCI tumour cell line growth inhibition, 48 h
Calls of active or inactive are those of the source. Cut-off read from the data, not from the text of the source: active = GI50 up to about 1.1 µM and inactive = higher.
API: response.call in active, inactive

Recorded test outcome, item O=C(CCO)OCCCCCC/C=C\CCCCCC/C=C\CCCCCCCCOC(=O)CCO
inactive

Subsequent entry: O=C(Nc1ccc(Cl)c(Cl)c1)N1N=C2c3ccccc3CCC2C1c1ccc(Cl)cc1 (stereo not given)
inactive

Subsequent entry: COc1ccc(Nc2nc3ccccc3nc2-c2cccs2)cc1OC
inactive

Subsequent entry: CCCCOCCOCCOC1=CC(=O)c2c(O)ccc(O)c2C1=O
active

Subsequent entry: CCOC(=O)Cc1ccc(Nc2nc3cc(C(F)(F)F)ccc3nc2C(=O)OCC)cc1
inactive

Subsequent entry: CN1CCN(CCCCN2c3ccccc3Sc3ccc(N=[N+]=[N-])cc32)CC1
inactive

Subsequent entry: C=CCc1c(O)c2ccccc2[nH]c1=O
inactive

Subsequent entry: CN1C(=O)C(O)CC1c1cccc(F)c1 (stereo not given)
inactive

Subsequent entry: CC1Oc2cc3c(-c4c(O)cc(O)c5c(O)c6c(cc45)OC(C)C(C)C6=O)c(O)cc(O)c3c(O)c2C(=O)C1C (stereo not given)
active

Subsequent entry: CCOC(=O)NC(Nc1ccc(C(=O)OCC)cc1)(C(F)(F)F)C(F)(F)F
inactive

###

- Test system: M19-MEL
- protocol-summary: NCI tumour cell line growth inhibition, 48 h
Activity calls are given as the source filed them. No stated cut-off is given here; in the data, active = GI50 up to about 1.1 µM and inactive = higher.
metric: GI50

Which GI50 value is on record for CN(C)CCNc1ccc2ncn3c4ccccc4c(=O)c1c23 ?
2.96 µM (inactive)

Subsequent entry: [N-]=[N+]=Nc1c(Br)c(=O)[nH]c(=O)n1COCCO
> 100 µM (inactive)

Subsequent entry: Cc1cc(O)nc(NN2C(Cl)C(=O)C2c2ccccc2O)n1 (stereo unspecified)
3.84 µM (inactive)

Subsequent entry: O=C(O)C(CS)NCc1c2ccccc2nc2ccccc12 (stereo unspecified)
34.9 µM (inactive)

Subsequent entry: COc1ccc(/C=c2/sc3n(c2=O)NC2(CCCCC2)NN=3)cc1
> 100 µM (inactive)

Subsequent entry: CC(=O)OC1COC(N2C(=O)C(=O)c3cc(Br)ccc32)C(OC(C)=O)C1OC(C)=O (stereo unspecified)
52.1 µM (inactive)

###

- System: SNB-19
- protocol-summary: NCI tumour cell line growth inhibition, 48 h
Activity calls are given as the source filed them. No stated cut-off is given here; in the data, active = GI50 up to about 1.1 µM and inactive = higher.
Provide the reported GI50 of each item.

Which GI50 value is on record for Cc1ccc(-c2nc3ccccc3c(=O)n2NC2OC(CO)C(O)C(O)C2O)cc1 (stereo not given) ?
> 100 µM (inactive)

Subsequent entry: Cc1nn(C(=O)c2ccccc2O)c2c1C(c1ccco1)SC(=N)N2 (stereo not given)
> 10 µM (inactive)

Subsequent entry: C=C(Cl)c1c(OC)cccc1OCc1ccccc1
> 100 µM (inactive)

Subsequent entry: CCOC(=O)[C@@]12C[C@](/C=C/OC)(O[Si](C)(C)C)[C@@]13c1cc(OC)c(OC)cc1CCN3C(=O)C2O (stereo not given in full)
> 100 µM (inactive)

Subsequent entry: [N-]=[N+]=Nc1c(Br)c(=O)[nH]c(=O)n1COCCO
> 100 µM (inactive)

Subsequent entry: CC(=O)Oc1c(C)c2c(c3ncccc13)OC(C)C2 (stereo not given)
34 µM (inactive)

Subsequent entry: O=C(O)C(CS)NCc1c2ccccc2nc2ccccc12 (stereo not given)
58.6 µM (inactive)

Subsequent entry: Clc1ccc(-c2nn3c(CCCCCCCCc4nnc5sc(-c6ccc(Cl)cc6)nn45)nnc3s2)cc1
20.6 µM (inactive)

Subsequent entry: CC1=NN(C(=O)c2ccc(Cl)cc2)C(=O)/C1=C/c1ccccc1O
> 100 µM (inactive)

Subsequent entry: CN1Cc2c(nc(-c3ccc(Br)cc3)c[n+]2[O-])N(C)C1
> 100 µM (inactive)
